Collected TGI values appear next to each entry.
Tested on: SNB-75 CNS
PROTOCOL DETAILS: NCI tumour cell line growth inhibition, 48 h
READOUT KIND: TGI

[[record]]
compound = "C=CC1CC12C(=O)C1OC2(C)C2C(=O)c3c(O)cccc3C(=O)C12 (stereo unspecified)"
data_value = "> 100 µM"

[[record]]
compound = "O=C(O)\\C=C/C=C/C=C/C=C/C(=O)O"
data_value = "> 100 µM"

[[record]]
compound = "NNC(=O)C(O)C(O)C(O)CO (stereo unspecified)"
data_value = "> 100 µM"

[[record]]
compound = "CC(C)(C)c1cc(O)c2c(c1O)C(=O)CCC2"
data_value = "> 100 µM"

[[record]]
compound = "Cc1cccc(C)c1NC(=O)C(=O)C(c1ccccc1Cl)S(=O)(=O)Cc1ccccc1Cl (stereo unspecified)"
data_value = "> 44.1 µM"

[[record]]
compound = "CC1(C)CCCC2(C)C3=C(CCC12)C(=O)OC3 (stereo unspecified)"
data_value = "> 100 µM"

[[record]]
compound = "O=C1c2cccc3c([N+](=O)[O-])ccc(c23)C(=O)N1CCCCl"
data_value = "> 10 µM"

[[record]]
compound = "CSC1=C(C(=O)N(COCC[Si](C)(C)C)c2ccccc2Br)CCC(C(C)(C)C)C1 (stereo unspecified)"
data_value = "> 100 µM"

[[record]]
compound = "Cn1cc(S(=O)(=O)NC(=O)Nc2ccc(Cl)cc2)c(=O)c2ccc(Cl)cc21"
data_value = "> 100 µM"

[[record]]
compound = "Cc1cc2nn(C3CCCCO3)nc2cc1C (stereo unspecified)"
data_value = "> 100 µM"

[[record]]
compound = "O=C1c2ccccc2-c2nc(-c3cccs3)cc3c2c1nc1ccccc13"
data_value = "> 100 µM"


====

Tested on: SF-268 CNS
PROTOCOL DETAILS: NCI tumour cell line growth inhibition, 48 h
Where a SMILES comes first, the peptide text is derived from it. [ ]: non-standard residue; d: D form. The star is where a group is joined. Bn2Val = CC(C)[C@@H](C(=O)*)N(Cc1ccccc1)Cc1ccccc1; NHPiperonyl = c1cc2c(cc1CN*)OCO2; NMeV = CN[C@H](C(=O)O)C(C)C; dNMeA = CN[C@H](C)C(=O)O
Collected TGI values appear next to each entry.
READOUT KIND: TGI

[[record]]
molecule = "COC1=CC(=O)c2c(O)c3c(c(O)c2C1=O)OC1(Oc2c(cc4cc(C)oc(=O)c4c2O)CC1O)C3O (stereo not given)"
data_value = "> 100 µM"

[[record]]
molecule = "CC(C)[C@H](NC(=O)[C@H](C(C)C)N(Cc1ccccc1)Cc1ccccc1)C(=O)N(C)[C@H](C(=O)N1CCC[C@H]1C(=O)N(C)[C@H](C)C(=O)NCc1ccc2c(c1)OCO2)C(C)C (Bn2Val-V[NMeV]P[dNMeA]-NHPiperonyl)"
data_value = "> 74.5 µM"

[[record]]
molecule = "CC1(C)CC(=O)c2c([nH]c(=S)c(C#N)c2-c2ccc(Br)cc2)C1"
data_value = "> 100 µM"

[[record]]
molecule = "OCC(O)C(O)C(O)c1nn[nH]n1 (stereo not given)"
data_value = "> 100 µM"

[[record]]
molecule = "C/C(=N\\NC(=O)C[n+]1ccccc1)c1sc(-c2nc(C)c(/C(C)=N/NC(=O)C[n+]3ccccc3)s2)nc1C"
data_value = "> 100 µM"

[[record]]
molecule = "C[C@@]1([C@H](OC(=O)c2cccc3ccccc23)C(N)=O)CO1"
data_value = "> 43 µM"

[[record]]
molecule = "Oc1ccccc1/C=N/Nc1nc2ccccc2s1"
data_value = "> 100 µM"

[[record]]
molecule = "O=S1(=O)OCc2ccccc21"
data_value = "> 100 µM"

[[record]]
molecule = "Cc1ccc2oc(=O)cc(CC(=O)O)c2c1"
data_value = "> 100 µM"

[[record]]
molecule = "CC1(C)CCc2cc3c(cc2O1)OC(C)(C)CC3=O"
data_value = "> 100 µM"

[[record]]
molecule = "Cc1cc2nn(C3CCCCO3)nc2cc1C (stereo not given)"
data_value = "> 100 µM"

[[record]]
molecule = "C=C(C)[C@@H]1CC[C@]2(C(=O)N3CCN(C)CC3)CC[C@]3(C)[C@H](CC[C@@H]4[C@@]5(C)C/C(=C/c6ccncc6)[C@H](O)C(C)(C)[C@@H]5CC[C@]43C)[C@@H]12"
data_value = "57.6 µM"

[[record]]
molecule = "O=P1(N(CCCl)CCCl)Oc2c(Cl)cc(Cl)c(Cl)c2Cc2c(Cl)c(Cl)cc(Cl)c2O1"
data_value = "> 100 µM"

[[record]]
molecule = "ClCCN(CC#CCCCC#CCN(CCCl)CCCl)CCCl"
data_value = "33.5 µM"

[[record]]
molecule = "NNC(=O)CC(=O)Nc1ccccc1Cl"
data_value = "> 100 µM"

[[record]]
molecule = "COc1ccc(/C=C(/C(=O)N2CCN(c3ccc(C)cc3)CC2)c2cc(OC)c(OC)c(OC)c2)cc1N"
data_value = "> 100 µM"

[[record]]
molecule = "Cc1nnc(N2C(=O)C(=Cc3ccc(Cl)cc3)N=C2c2ccc(Cl)cc2)nc1/C=C\\c1ccc(N(C)C)cc1"
data_value = "> 100 µM"

[[record]]
molecule = "CCOc1ccc(NC(=O)/C(Cc2nc3ccccc3[nH]c2=O)=N\\O)cc1"
data_value = "> 100 µM"

[[record]]
molecule = "Cn1c(=O)c2c(nc(N3CCOCC3)n2CCCNCC(O)c2ccc(O)c(O)c2)n(C)c1=O (stereo not given)"
data_value = "> 100 µM"

[[record]]
molecule = "OC1C2CCC3C2CC(C(O)(c2ccccc2)c2ccccc2)C13 (stereo not given)"
data_value = "> 100 µM"

[[record]]
molecule = "Cc1ccc(C(=O)Nc2ccc(CN3CCN(C)CC3)c(C(F)(F)F)c2)cc1C#Cc1cnc(N)c2ccc(C#N)cc12"
data_value = "17.2 µM"

[[record]]
molecule = "COc1ccc2c(c1)[n+]([O-])c(/C(C)=N/NC(N)=S)c(C)[n+]2[O-]"
data_value = "> 100 µM"

[[record]]
molecule = "Cc1ccc2c(=O)cc(-c3cc4ccccc4s3)[nH]c2n1"
data_value = "> 100 µM"

[[record]]
molecule = "Cc1ccc(N/N=C/C2=CC(C)(C)C(C#N)(C#N)C(O)=C2C#N)cc1"
data_value = "> 100 µM"

[[record]]
molecule = "CN1C(=O)C(C)(C)NS1(=O)=O"
data_value = "> 100 µM"

[[record]]
molecule = "O=C(Nc1ccc(-n2ccc3c(NC(=O)c4ccccc4)ncnc32)cc1)Nc1ccc(Cl)c(C(F)(F)F)c1"
data_value = "4.99 µM"

[[record]]
molecule = "CC[C@@]1(O)C(=O)OCc2c1cc1n(c2=O)Cc2cc3c([N+](=O)[O-])c(O)ccc3nc2-1"
data_value = "> 22.3 µM"

[[record]]
molecule = "c1ccc(C2(c3ccccc3)S/C(=C3/SC(c4ccccc4)(c4ccccc4)c4ccccc43)c3ccccc32)cc1"
data_value = "> 100 µM"

[[record]]
molecule = "CCOc1ccccc1NC(=O)CSc1nnc(Cc2ccccc2)o1"
data_value = "64.4 µM"

[[record]]
molecule = "Cc1cc(N2CCCCC2)nc(NCc2cc(Nc3ccnc4cc(Cl)ccc34)ccc2F)n1"
data_value = "3.11 µM"

[[record]]
molecule = "CC(=O)OC(=C(C#N)C#N)c1nccnc1C(=O)O"
data_value = "> 100 µM"

[[record]]
molecule = "CN(C)CCNC(=O)c1ccccc1Nc1c(Cl)cccc1Cl"
data_value = "31.5 µM"

[[record]]
molecule = "COc1c(C(=O)/C(=N/Nc2cccc(Cl)c2)C(C)=O)c(O)c(OC)c2occc12"
data_value = "> 100 µM"

[[record]]
molecule = "CCOc1cccc2sc(N)nc12"
data_value = "> 100 µM"

[[record]]
molecule = "O=C1C[C@@H]2[C@@H](C=CC23CC3)N1O"
data_value = "> 100 µM"


====

Tested on: HOP-62 NSCLC
PROTOCOL DETAILS: NCI tumour cell line growth inhibition, 48 h
Collected TGI values appear next to each entry.
READOUT KIND: TGI (µM)

[[record]]
compound = "Cc1ccc(N/N=C/C2=CC(C)(C)C(C#N)(C#N)C(O)=C2C#N)cc1"
result_comparator = ">"
data_value = 100

[[record]]
compound = "Nc1nc2ccccc2c2[nH]c3ccccc3c12"
result_comparator = "="
data_value = 2.44

[[record]]
compound = "CC(=O)O[C@H]1CC[C@@]2(C)C(=CC[C@@H]3C2CC[C@]2(C)C(=O)NC(=O)CC32)C1 (stereo partly specified)"
result_comparator = ">"
data_value = 100

[[record]]
compound = "Nc1nc(N)c2c(CCc3ccc(C(=O)N[C@@H](CCC(=O)O)C(=O)O)cc3)ccnc2n1"
result_comparator = ">"
data_value = 100

[[record]]
compound = "CC(=O)O[C@H]1C[C@H]2[C@@H]([C@H](OC(C)=O)C[C@@H]3CC4(CC[C@@]32C)OOC2(CCCCC2)OO4)[C@@H]2CC[C@H]([C@H](C)CCC(N)=O)[C@@]12C"
result_comparator = "="
data_value = 2.11

[[record]]
compound = "O=S1(=O)OCc2ccccc21"
result_comparator = "="
data_value = 42.3

